Tested on: glycogen synthase kinase-3 (GSK3A per assay name; protocol says GSK3B)
Test protocol: GSK3 binders on small-molecule microarrays, primary screen, biochemical, small-molecule microarray, 635 nm fluorescence, GSK3A (AID 1103); also: the record names both GSK3A and GSK3B
Run conditions: small-molecule microarray binding, fluorescence 635 nm; higher = more signal
The threshold is inclusive: composite z-score of exactly -0.6 counts as fulfilled; values below receive not fulfilled.

Query: # bool: composite z-score of `COC(=O)[C@@]1(Cc2ccccc2)[C@@H]2C(=CC(=O)[C@H]2CC(=O)C(=O)N(C)C)CN1C(=O)c1ccccc1` >= -0.6
Reply: fulfilled

Query: Decide: is the reported value of composite z-score for CC1CC/C=C\[C@H]2OC34C=CCN(C(C)C)C(=O)[C@H]3N(CCCCCCO)C(=O)[C@@H]4C2C(=O)O1 (stereo partly drawn) equal to or greater than -0.6?
Reply: not fulfilled

Query: Reported composite z-score reaches at least -0.6 for `O=C(NCCCCCNC(=O)/C(Cc1ccccc1)=N/O)OCc1ccccc1` ?
Reply: fulfilled

Query: Quick check, composite z-score >= -0.6? `C#CCN([C@@H](Cc1ccc(O)cc1)C(=O)OC)[C@@H](/C=C/C1CC1)[C@H](O)Cc1ccccc1`
Reply: not fulfilled

Query: Tell me whether composite z-score is at least -0.6 here: CC[C@H]1C2=C3C(CC[C@H]4C(OCc5ccc(F)cc5C(F)(F)F)OC[C@](C)([C@@H]34)N(C(=O)OC(C)(C)C)C2)C(COC)C1COC (stereo partly drawn)
Reply: not fulfilled

Query: hey, is composite z-score for this one >= -0.6? Cc1ccccc1C(O)C1C=CC2C(=O)N(C)C(=O)C2N1N(c1ccccc1)c1ccccc1 (stereo not drawn)
Reply: fulfilled

Query: Has `C=CCNC(=O)[C@H]1[C@@H]2C(=O)O[C@@H](c3ccccc3)[C@@H](c3ccccc3)N2[C@@H](c2ccc(O)cc2)[C@]12C(=O)Nc1ccc(C#CC3(O)CCCCCC3)cc12` a recorded composite z-score greater than or equal to -0.6?
Reply: fulfilled
